# Tested on: Staphylococcus aureus
# test: Antibacterial activity against Staphylococcus aureus ATCC 25923 incubated for 18 to 24 hrs followed by addition incubation for 18 to 24 hrs on MHA plates
# Format: functional
Active and inactive are the calls of the source. No cut-off for these calls is given here.
metric: MBC

entry_smiles=O=c1c(-c2ccccc2)cc2ccccc2n1O target_system="Staphylococcus aureus" metric=MBC value_observed=inactive
entry_smiles=Cc1ccccc1-c1cc2cc3c(cc2n(O)c1=O)OCO3 target_system="Staphylococcus aureus" metric=MBC value_observed=inactive
entry_smiles=O=c1c(-c2ccc3ccccc3c2)c(O)c2ccccc2n1O target_system="Staphylococcus aureus" metric=MBC value_observed=inactive
entry_smiles=COc1ccc2c(c1)cc(-c1cccc3ccccc13)c(=O)n2O target_system="Staphylococcus aureus" metric=MBC value_observed=inactive
entry_smiles=COc1ccccc1-c1c(O)c2ccccc2n(O)c1=O target_system="Staphylococcus aureus" metric=MBC value_observed=inactive
entry_smiles=Cc1ccccc1-c1cc2c3c(ccc2n(O)c1=O)OCO3 target_system="Staphylococcus aureus" metric=MBC value_observed=inactive
entry_smiles=O=c1c(-c2cccc3ccccc23)cc2cc(O)ccc2n1O target_system="Staphylococcus aureus" metric=MBC value_observed=inactive
entry_smiles=O=c1[nH]c2ccccc2cc1-c1cccc2ccccc12 target_system="Staphylococcus aureus" metric=MBC value_observed=inactive
entry_smiles=Cc1ccccc1-c1cc2cc(F)ccc2n(O)c1=O target_system="Staphylococcus aureus" metric=MBC value_observed=inactive
entry_smiles=O=c1c(-c2cccc3ccccc23)cc2cc(F)ccc2n1O target_system="Staphylococcus aureus" metric=MBC value_observed=inactive
entry_smiles=O=c1c(-c2cccc3ccccc23)cc2ccccc2n1O target_system="Staphylococcus aureus" metric=MBC value_observed=inactive
entry_smiles=O=c1c(-c2cccc3ccccc23)cc2c(F)cccc2n1O target_system="Staphylococcus aureus" metric=MBC value_observed=inactive
entry_smiles=Cc1ccccc1-c1cc2c(F)cccc2n(O)c1=O target_system="Staphylococcus aureus" metric=MBC value_observed=inactive
entry_smiles=O=c1c(-c2ccccc2C(F)(F)F)cc2ccccc2n1O target_system="Staphylococcus aureus" metric=MBC value_observed="3.4 mM"
entry_smiles=O=c1c(-c2ccccc2C(F)(F)F)c(O)c2ccccc2n1O target_system="Staphylococcus aureus" metric=MBC value_observed=inactive
